# credit: patent US9090600B2

Reported LogP values for a set of compounds
# condition-parameters: pH 2.7
Marks after values point to notes of the source that are not given here.
assay-readout: LogP

compound	experimental-value
Cn1c(/C(=N\OCc2cccc(NC(=O)OCC(Cl)(Cl)Cl)n2)c2ccccc2)noc1=O	4.15 [a]
Cn1c(/C(=N\OCc2cccc(NC(=O)OC(CCl)CCl)n2)c2ccccc2)noc1=O	3.83 [a]
COC(=O)C(C)OC(=O)Nc1cccc(CO/N=C(/c2ccccc2)c2noc(=O)n2C)n1 (centres unmarked)	3.17 [a]
Cn1c(/C(=N\OCc2cccc(NC(=O)OCC(C)(C)C)n2)c2ccccc2)noc1=O	4.36 [a]
CCCCCOC(=O)Nc1cccc(CO/N=C(/c2ccccc2F)c2noc(=O)n2C)n1	4.34 [a]
Cn1c(/C(=N\OCc2cccc(NC(=O)c3ccccc3I)n2)c2ccccc2)noc1=O	3.76 [a]
Cn1c(C(=NOCc2cccc(NCC3CCCCC3)n2)c2ccccc2)noc1=O	3.02 [a]
CC#CCOC(=O)Nc1cccc(CO/N=C(/c2ccccc2)c2noc(=O)n2C)n1	3.42 [a]
COc1cccc(C(=NOCc2cccc(NC(=O)OCc3ccccc3)n2)c2noc(=O)n2C)c1	4.04 [a]
CC(CC1CC1)OC(=O)Nc1cccc(CO/N=C(/c2ccccc2)c2noc(=O)n2C)n1 (racemic)	4.32 [a]
CCCCCOC(=O)Nc1cccc(CO/N=C(/c2cccc(C)c2)c2noc(=O)n2C)n1	4.78 [a]
Cn1c(/C(=N\OCc2cccc(NC(=O)COc3cccc(Cl)c3)n2)c2ccccc2)noc1=O	4.1 [a]
CCCCCCOC(=O)Nc1nc(CO/N=C(/c2ccccc2)c2noc(=O)n2C)cs1	4.51 [a]
Cc1ccc(COC(=O)Nc2cccc(CO/N=C(/c3ccccc3)c3noc(=O)n3C)n2)cc1	4.31 [a]
Cc1cccc(COC(=O)Nc2cccc(CO/N=C(/c3ccccc3)c3noc(=O)n3C)n2)c1	4.34 [a]
Cn1c(/C(=N\OCc2cccc(NC(=O)c3ccc(Cl)cc3Cl)n2)c2ccccc2)noc1=O	4.14 [a]
Cn1c(/C(=N\OCc2cccc(NC(=O)C3CC4C=CC3C4)n2)c2ccccc2)noc1=O (centres unmarked)	3.68 [a]
Cn1c(/C(=N\OCc2cccc(NC(=O)c3ccc(F)cc3)n2)c2ccccc2)noc1=O	3.62 [a]
CCCCC(=O)Nc1nc(CO/N=C(/c2cccc(F)c2)c2noc(=O)n2C)cs1	3.48 [a]
CCCCC(=O)Nc1nc(CO/N=C(/c2ccc(C)cc2)c2noc(=O)n2C)cs1	3.7 [a]
CC1c2ccccc2COC1C(=O)Nc1cccc(CO/N=C(/c2ccccc2)c2noc(=O)n2C)n1 (centres unmarked)	4.35 [a]
C#CCCOC(=O)Nc1cccc(CO/N=C(/c2ccccc2)c2noc(=O)n2CC=C)n1	3.61 [a]
Cn1c(C(=NOCc2csc(NC(=O)c3ccc(F)cc3)n2)c2ccccc2)noc1=O	3.55 [a]
CC(OC(=O)Nc1cccc(CO/N=C(/c2ccccc2)c2noc(=O)n2C)n1)c1ccccc1 (centres unmarked)	4.23 [a]
CCCCCOC(=O)Nc1cccc(CO/N=C(/c2ccc(F)cc2)c2noc(=O)n2C)n1	4.51 [a]
Cn1c(/C(=N\OCc2cccc(NC(=O)OCCC3CCCCC3)n2)c2ccccc2)noc1=O	5.27 [a]
CCCCCCN(C(=O)OC(C)(C)C)c1cccc(CO/N=C(/c2cccc(C)c2)c2noc(=O)n2C)n1	6.57 [a]
CC(Oc1ccc(Br)cc1)C(=O)Nc1cccc(CO/N=C(/c2ccccc2)c2noc(=O)n2C)n1 (centres unmarked)	4.46 [a]
C#CCCC(C)OC(=O)Nc1cccc(CO/N=C(/c2ccccc2)c2noc(=O)n2C)n1 (centres unmarked)	3.8 [a]
Cn1c(/C(=N\OCc2cccc(NC(=O)OCCOc3ccccc3)n2)c2ccccc2)noc1=O	3.94 [a]
CCCCCC#CCOC(=O)Nc1cccc(CO/N=C(/c2ccccc2)c2noc(=O)n2C)n1	4.86 [a]
Cn1c(/C(=N\OCc2cccc(NC(=O)COc3ccccc3F)n2)c2ccccc2)noc1=O	3.76 [a]
